Assay: chemical genetic growth profiling, strain panel (AID 1159580);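 also: tested at 20 µM; growth read once vehicle control cultures reached saturation at 30 °C; 1 = growth at the plate median or of vehicle wells; lower values mean less growth of the strain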
Conditions: S. cerevisiae deletion strains, growth OD, locus YCL011C, strain gbp2, stronger effect = lower value
The campaign covered roughly 5,500 compounds. About 2,000 (36%) were called active. Roughly 18% stayed inconclusive and do not appear here. The list shows a part of the results.

[
  {
    "MOLECULE": "CC(=O)c1ccc(O)c(CC=C(C)C)c1",
    "normalized growth": 0.959
  },
  {
    "MOLECULE": "NC(Cn1ccc(=O)c(O)c1)C(=O)O (centres undefined)",
    "normalized growth": 1.03
  },
  {
    "MOLECULE": "CC(CCC(=O)O)[C@H]1CCC2C3C(=O)C[C@@H]4CC(=O)CC[C@]4(C)C3CC(=O)[C@@]21C (some centres undefined)",
    "normalized growth": 0.987
  },
  {
    "MOLECULE": "OC[C@H]1O[C@@](CO)(O[C@@H]2O[C@H](CO)[C@@H](O)[C@H](O)[C@H]2O)[C@@H](O[C@@H]2O[C@H](CO)[C@@H](O)[C@H](O)[C@H]2O)[C@@H]1O",
    "normalized growth": 1.02
  },
  {
    "MOLECULE": "CCOC(=O)NNc1nncc2ccccc12",
    "normalized growth": 1.04
  },
  {
    "MOLECULE": "CC(CCc1ccccc1)NCC(O)c1ccc(O)c(C(N)=O)c1 (centres undefined)",
    "normalized growth": 1.01
  },
  {
    "MOLECULE": "NC(=O)c1cccnc1",
    "normalized growth": 0.979
  },
  {
    "MOLECULE": "CCOC(=O)[C@H](CCc1ccccc1)N[C@@H](C)C(=O)N1CCC[C@H]1C(=O)O",
    "normalized growth": 0.976
  },
  {
    "MOLECULE": "Oc1c(Cl)cc(Cl)cc1Sc1cc(Cl)cc(Cl)c1O",
    "normalized growth": 0.0589
  },
  {
    "MOLECULE": "CO[C@H]1CC(O[C@@H]2/C(C)=C/C[C@@H]3C[C@@H](C[C@]4(CC[C@H](C)[C@@H](C5CCCCC5)O4)O3)OC(=O)[C@@H]3C=C(C)/C(=N\\O)[C@H]4OC/C(=C\\C=C\\[C@@H]2C)[C@]43O)O[C@@H](C)C1O (some centres undefined)",
    "normalized growth": 1
  },
  {
    "MOLECULE": "O=C(O)c1ccc(S(=O)(=O)N(Cl)Cl)cc1",
    "normalized growth": 0.977
  },
  {
    "MOLECULE": "O=C(O)c1cccnc1",
    "normalized growth": 0.984
  },
  {
    "MOLECULE": "COc1ccc([C@@H]2CC(=O)c3c(O)cc(O[C@@H]4O[C@H](CO[C@H]5O[C@@H](C)[C@H](O)[C@@H](O)[C@H]5O)[C@@H](O)[C@H](O)[C@H]4O)cc3O2)cc1O",
    "normalized growth": 0.975
  },
  {
    "MOLECULE": "COC1CC2CCC(C)C(O)(O2)C(=O)C(=O)N2CCCCC2C(=O)OC(C(C)CC2CCC(O)C(OC)C2)CC(=O)C(C)/C=C(\\C)C(O)C(OC)C(=O)C(C)CC(C)/C=C/C=C/C=C/1C (centres undefined)",
    "normalized growth": 0.0563
  },
  {
    "MOLECULE": "CC(C)(C)NCC(O)c1ccc(O)c(CO)c1 (centres undefined)",
    "normalized growth": 0.998
  },
  {
    "MOLECULE": "O=C(NCO)c1cccnc1",
    "normalized growth": 1.01
  },
  {
    "MOLECULE": "CCN1CCN(C(=O)NC(C(=O)N[C@@H]2C(=O)N3[C@@H]2SC(C)(C)[C@@H]3C(=O)O)c2ccccc2)C(=O)C1=O (some centres undefined)",
    "normalized growth": 1.02
  },
  {
    "MOLECULE": "Oc1cccc(O)c1",
    "normalized growth": 0.938
  },
  {
    "MOLECULE": "CC(CCC(=O)O)[C@H]1CCC2C3CC[C@@H]4C[C@H](O)CC[C@]4(C)C3C=C[C@@]21C (some centres undefined)",
    "normalized growth": 0.994
  }
]
